- Tested on: NCI-H460
- Assay Notes: NCI tumour cell line growth inhibition, 48 h
Active and inactive are the calls of the source. No stated cut-off is given here; in the data, active = GI50 up to about 1.1 µM and inactive = higher.
Measured Endpoint: GI50

Sample answers from the record:
1) S=C1SCN(Cc2ccco2)CN1c1ccc(Br)cc1	7.33 µM (inactive)
2) Oc1c(/N=N/c2ccccc2)c2ccccc2c2ccc3ccccc3c12	> 100 µM (inactive)

The recorded GI50 for entry Cc1ccc(-c2cs/c(=N\c3c(C)n(C)n(-c4ccccc4)c3=O)n2CCO)cc1 equals > 100 µM (inactive)

Form field GI50, entry CN1CN(c2ccccc2)C2(CCN(C(=O)OC(C)(C)C)CC2)C1=O : > 100 µM (inactive)

Please fill in: GI50 reported for CC(=O)/C(=C\n1c(=S)[nH]c2ccc([N+](=O)[O-])cc21)C(=O)Nc1ccccc1C = > 100 µM (inactive)

Lab note: measured GI50 of O=C(O)CNS(=O)(=O)c1ccc(NC(=O)c2ccc([N+](=O)[O-])cc2)cc1 was > 100 µM (inactive)

Form: compound = Cc1ccc(CSC(=N)Nc2ccccc2)cc1C ; GI50 = 18.6 µM (inactive)

====

- System: DMS-273
- Assay Notes: NCI tumour cell line growth inhibition, 48 h
Calls of active or inactive are those of the source. Rule as the data show it: active = GI50 up to about 1.1 µM and inactive = higher.
GI50 values by entry

1) CCOc1ccc2c(c1)[n+]([O-])c(-c1ccc(Br)cc1)c(N)[n+]2[O-]	39.4 µM (inactive)

Lab note: molecule C[C@]12CCC3[C@@H](CC[C@@H]4c5nonc5CC[C@]34C)C1CCC2=O (stereo partly specified) tested on DMS-273; recorded GI50 was 19.5 µM (inactive)

Reported DMS-273 GI50 for item CCOc1ccc(Nc2nc(C)c(C(=O)/C=C/c3ccc(Cl)cc3Cl)s2)cc1 was 21.4 µM (inactive)

Form field, GI50 with DMS-273, item CCC(=O)O[C@@H]1C2C(OC(C)=O)C34COC(C)([C@@H]3C3C(C[C@]3(C)OC(C)=O)[C@@H](OC(=O)c3ccccc3)C4=O)[C@H](OC(C)=O)[C@@]2(OC(C)=O)C[C@@H]1C (stereo partly specified) : 44.1 µM (inactive)

Entry CS(=O)(=O)OCCN1CCN(C(=O)c2ccc(Cl)c3c(Nc4ccc(S(=O)(=O)N=C(N)N)cc4)c4ccccc4nc23)CC1 : GI50 on DMS-273 = > 100 µM (inactive)

DMS-273 GI50 of C/C1=C\[C@H](C)C[C@H](C)OC(=O)C[C@H](c2ccc(O)cc2)NC(=O)[C@@H](Cc2c(Br)[nH]c3ccccc23)N(C)C(=O)[C@H](C)NC(=O)[C@@H](C)C1 [JASPAMIDE] is 0.308 µM (active)

====

# Lookup of reported GI50 keyed by entry
- System: 786-0
- Assay Notes: NCI tumour cell line growth inhibition, 48 h
Calls of active or inactive are those of the source. Rule as the data show it: active = GI50 up to about 1.1 µM and inactive = higher.

1) Cc1cc(C)c2cc(N)c(Cl)nc2n1	> 100 µM (inactive)
2) CC(=O)O[C@H]1CC[C@H]2[C@@H]3CCc4cc(O)c(I)cc4[C@H]3CC[C@]12C	14.1 µM (inactive)
3) CC(C)(C)OC(=O)NCCc1cccc2c1oc1c(CCC(=O)O)cccc12	> 100 µM (inactive)

GI50 measured on COc1ccc2c(CCNC(=O)/C=C/c3ccccc3)c(C(C)=O)[nH]c2c1[N+](=O)[O-] = 20.3 µM (inactive)

So for COc1c(Cl)c(=O)oc2ccc(Cl)cc12 , the logged GI50 turned out to be > 100 µM (inactive)

According to the records, this compound CCN(CC)c1c(C(=O)/C=C/c2ccc(F)cc2)c(-c2ccccc2)nn(C)c1=O displays GI50 of 10.3 µM (inactive)

// field: GI50; key: CC(N1CCOCC1)C(O)(c1ccccc1)c1ccccn1 (stereo not given) ; value = > 100 µM (inactive)

Data point: CCOC(=O)C1=C(C)N(NC(=O)OC)C2(N)N(NC(=O)OC)C(C)=C(C(=O)OCC)C12C#N (stereo not given) ; GI50 = > 100 µM (inactive)

For this compound ( O=C1C=C(Nc2nc(O)cc(C(=O)O)n2)c2ccccc2C1=O ), measured GI50 is > 100 µM (inactive)

Record O=C1c2ccccc2C(=O)c2c(O)ccc(O)c21 [QUINIZARIN] . Reported GI50: > 100 µM (inactive)

====

Item-by-item account of GI50
- Test system: MDA-MB-231
- Assay Notes: NCI tumour cell line growth inhibition, 48 h
Activity calls are given as the source filed them. Cut-off read from the data, not from the text of the source: active = GI50 up to about 1.1 µM and inactive = higher.

# count of solved cases: 5
1. COc1ccc(/C=C2\CCC(CN(C)C)C2=O)cc1 (stereo not drawn)	1.99 µM (inactive)
2. CNC(=O)N(CCC#N)CCCN(C(=O)NC)c1ccccc1	> 100 µM (inactive)
3. O=C1C=C(Nc2nc(O)cc(C(=O)O)n2)c2ccccc2C1=O	> 100 µM (inactive)
4. Cc1cc(C)c2cc(N)c(Cl)nc2n1	> 100 µM (inactive)
5. Nc1nc2c(ncn2CC2CCC(CO)C2)c(=O)[nH]1 (stereo not drawn)	> 100 µM (inactive)

// GI50 lookup, compound = CC(C)(C)[Si](C)(C)OCCCCC1CC2(S(=O)(=O)C3=CC=C=C=C3)ON1CC2S(=O)(=O)c1ccccc1 (stereo not drawn) , result: > 100 µM (inactive)

Just so you know, measured GI50 for CCc1ccccc1NC(=O)/C=C/c1ccccc1 came out at > 100 µM (inactive)

The reported GI50 of the compound CCC/C(Cl)=N\OC(=O)Nc1ccc(F)cc1 was 17.9 µM (inactive)

According to the records, this compound Cc1ccc(-n2nnc(C#N)c2O)cc1 displays GI50 of > 100 µM (inactive)

GI50 for CC(C)(C)/C(O)=C\c1nc2cc(C(F)(F)F)ccc2[nH]c1=O is > 100 µM (inactive)

====

- Tested on: NCI-H226
- Assay Notes: NCI tumour cell line growth inhibition, 48 h
The source made the active and inactive calls. No stated cut-off is given here; in the data, active = GI50 up to about 1.1 µM and inactive = higher.
Select the correct class. Options are 1.0 (active), 0.0 (inactive) and nothing else.

Example results:
1. COc1cccc(C2C3=C(COC3=O)Oc3cc4c(cc32)OCO4)c1 (stereo unspecified)	1.0
2. Oc1ccc(C[C@@H]2CN[C@H](Cc3ccc(O)c(Br)c3)CN2)cc1	0.0

Identify the outcome logged in this assay for the compound shown: O=C1C=CC(=O)c2c1ccc1c3ccccc3n(-c3ccccn3)c21 0.0

Could you check what this test reported for Cc1ccc(-n2cnc(C(=N)C#N)c2N)cc1 ? 0.0

Status in this test for O=[N+]([O-])c1ccc(C2SCc3nc4ccccc4n32)cc1 (stereo unspecified) ? 0.0

====

- System: MCF7
- Assay Notes: NCI tumour cell line growth inhibition, 48 h
Active and inactive are the calls of the source. Cut-off read from the data, not from the text of the source: active = GI50 up to about 1.1 µM and inactive = higher.
Measured Endpoint: GI50

Use the examples below as a reference point.
1) CCCCCCCCCC1CC(=O)NCC(=O)NC(C(C)C)C(=O)NC(CC(C)C)C(=O)NC(C)C(=O)NC(C(C)C)C(=O)O1 (stereo unspecified)	17.8 µM (inactive)
2) CC(=O)O[C@H]1CCn2c3c(c(C)c21)C(=O)C(N1CC1)=C(C)C3=O	5.51 µM (inactive)
3) O=c1nc(Oc2c(F)c(F)c(F)c(F)c2F)ccn1C1OC(CO)C(O)C1O (stereo unspecified)	> 100 µM (inactive)
4) Cc1cnc2c(c1)C(=O)N(c1ccc(Oc3ccccc3)cc1)S2(=O)=O	> 100 µM (inactive)
5) COC(=O)C1OC(O[C@H]2CC[C@]3(C)[C@H]4CC=C5[C@@H]6CC(C)(C)CC[C@]6(C(=O)OC)[C@H](O)C[C@@]5(C)[C@]4(C)CC[C@H]3C2(C)C)C(O)C(O)C1O (stereo partly specified)	11 µM (inactive)

// GI50 value for Oc1ccc(-c2nc3ccc(Cl)cc3s2)cc1 : 7.41 µM (inactive)

GI50 for COC(=O)/C=C/c1cc2c(cc1-c1c(C(=O)O)cc(OC)c(OC)c1OC)OCO2 is > 10 µM (inactive)

The compound identified as COC(=O)c1cc2c(cc1O)[C@@H](NC(C)=O)CCc1cc(OC)c(OC)c(OC)c1-2 registered its GI50 at < 0.01 µM (active)

// CC(=O)Nc1ccc(C(=O)NN2C(=O)CSC2c2ccccc2)cc1 (stereo unspecified) : GI50 value = > 100 µM (inactive)

Noted for Cc1[nH]c2ncn3nc(C(Cl)(Cl)Cl)nc3c2c1Cc1ccccc1 : its GI50 reads > 100 µM (inactive)

# GI50 of Cc1ccc(-n2cnc(C(=N)C#N)c2N)cc1 = > 100 µM (inactive)

====

- System: OVCAR-4
- Assay Notes: NCI tumour cell line growth inhibition, 48 h
Calls of active or inactive are those of the source. Rule as the data show it: active = GI50 up to about 1.1 µM and inactive = higher.
GI50 values for the compounds below.

Measured GI50 for this entry CC(C)Oc1ccc(CNC2=NCCO2)c2ccccc12 on OVCAR-4: 13.9 µM (inactive)

Fill in: OVCAR-4 GI50 for CCOc1ccc(Nc2nc(C)c(C(=O)/C=C/c3ccc(Cl)cc3Cl)s2)cc1 = 10.8 µM (inactive)

OVCAR-4 assay, compound O=[N+]([O-])c1cccc(C(O)/C(=N/O)c2nc3ccc(Cl)cc3nc2O)c1 (stereo not given) , recorded GI50 = > 100 µM (inactive)

// GI50 (OVCAR-4) for CCCCCCCCCCCCCCCCOP(=O)(O)OCC(NC(C)=O)C(=O)O (stereo not given) = 25.9 µM (inactive)

The compound Clc1ccc(OCc2nnc(CCCCCCCCc3nnc(COc4ccc(Cl)cc4)o3)o2)cc1 on OVCAR-4: GI50 was > 100 µM (inactive)

Every entry's value here was drawn from ChEMBL document CHEMBL1201862.
